meta.source: ChEMBL document CHEMBL3875211

Assign pIC50 to each entry below.
Experiment: Antiproliferative activity against human HepG2 cells after 48 hrs by MTT assay
Format: functional, cell-based
Conditions: HepG2, 48 h
Numbers only, as −log10 of the molar value.

A selection of reference data follows.
INSERT INTO results (compoundsmiles, testreadout, recordednumber) VALUES
  ('COc1ccc(-c2cc(-c3cc4cccc(OC)c4oc3=O)nc(C#N)c2N)cc1', 'pIC50', 5.90),
  ('COc1cccc2c1C(=O)c1c(O)c3c(c(O)c1C2=O)C[C@@](O)(C(=O)CO)C[C@@H]3O[C@H]1C[C@H](N)[C@H](O)[C@H](C)O1', 'pIC50', 5.31),
  ('COc1ccc(/C=C(\C#N)C(=O)N/N=C(\C)c2cc3cccc(OC)c3oc2=O)cc1OC', 'pIC50', 6.03),
  ('COc1ccc(/C=C(\C#N)C(=O)N/N=C(\C)c2cc3cccc(OC)c3oc2=O)cc1', 'pIC50', 6.11),
  ('COc1ccc(-c2cc(-c3cc4cccc(OC)c4oc3=O)nc(C#N)c2N)cc1OC', 'pIC50', 5.49);

For the 4 compounds below, give their pIC50 values.
1. COc1cc(/C=C/C(=O)c2cc3cccc(OC)c3oc2=O)cc(OC)c1OC
2. COc1ccc(/C=C/C(=O)c2cc3cccc(OC)c3oc2=O)cc1OC
3. CCOC(=O)c1ccc(-c2cc3cccc(OC)c3oc2=O)nc1C
4. COc1ccc(/C=C/C(=O)c2cc3cccc(OC)c3oc2=O)cc1

1: 5.69; 2: 6.09; 3: 5.31; 4: 6.19

----------
Assay: Antiproliferative activity against human HepG2 cells after 48 hrs by MTT assay
Format: functional, cell-based
Settings: HepG2, 48 h
Assign pIC50 to each entry below.
One number for each entry, as −log10 of the molar value.

INSERT INTO results (compoundsmiles, recordednumber) VALUES
  ('COc1cccc2cc(-c3ccc(C(C)=O)c(C)n3)c(=O)oc12', 5.04),
  ('COc1ccc(C[C@@H](O)c2cc(OC)c(OC)c(OC)c2)cc1O', 5.47);

Then this compound:
So what's the measured pIC50 for this one? COc1cc(/C=C(\C#N)C(=O)N/N=C(\C)c2cc3cccc(OC)c3oc2=O)cc(OC)c1OC
5.80

----------
Assign IC50 to each entry below.
Assay: Antiproliferative activity against human K562 cells after 48 hrs by MTT assay
Format: functional, cell-based
Conditions: K562, 48 h
Please provide the amount together with its unit, number first.

A selection of reference data follows.
INSERT INTO results (compoundsmiles, result) VALUES
  ('COc1ccc(/C=C/C(=O)c2cc3cccc(OC)c3oc2=O)cc1', '1090 nM'),
  ('COc1ccc(/C=C(\C#N)C(=O)N/N=C(\C)c2cc3cccc(OC)c3oc2=O)cc1', '3960 nM'),
  ('COc1cccc2c1C(=O)c1c(O)c3c(c(O)c1C2=O)C[C@@](O)(C(=O)CO)C[C@@H]3O[C@H]1C[C@H](N)[C@H](O)[C@H](C)O1', '2960 nM');

For the 4 compounds below, give their IC50 values.
1. COc1ccc(C[C@@H](O)c2cc(OC)c(OC)c(OC)c2)cc1O
2. CCOC(=O)c1ccc(-c2cc3cccc(OC)c3oc2=O)nc1C
3. COc1ccc(/C=C(\C#N)C(=O)N/N=C(\C)c2cc3cccc(OC)c3oc2=O)cc1OC
4. COc1cccc2cc(-c3ccc(C(C)=O)c(C)n3)c(=O)oc12

3460 nM
8820 nM
8710 nM
1240 nM

For the 2 compounds below, give their IC50 values.
1. COc1ccc(-c2cc(-c3cc4cccc(OC)c4oc3=O)nc(C#N)c2N)cc1
2. COc1ccc(-c2cc(-c3cc4cccc(OC)c4oc3=O)nc(C#N)c2N)cc1OC

1210 nM
1610 nM

----------
Assign IC50 to each entry below.
Test: Antiproliferative activity against human K562 cells after 48 hrs by MTT assay
Assay type: functional, cell-based
Settings: K562, 48 h
Numbers only, in µM.

A selection of reference data follows.
INSERT INTO assay_data (compoundsmiles, testreadout, recordednumber) VALUES
  ('COc1ccc(/C=C/C(=O)c2cc3cccc(OC)c3oc2=O)cc1OC', 'IC50', 0.93),
  ('COc1cc(/C=C/C(=O)c2cc3cccc(OC)c3oc2=O)cc(OC)c1OC', 'IC50', 1.36);

So what's the measured IC50 for this one? COc1cc(/C=C(\C#N)C(=O)N/N=C(\C)c2cc3cccc(OC)c3oc2=O)cc(OC)c1OC
0.49
